RUN DESCRIPTION: folding enthalpy; higher = less favourable; fluorescence melt of hairpins on a sequencing array, two-state fit
CONDITIONS USED: sodium 0.088 M
Binned folding enthalpy; ranges: lower range (below -40 kcal/mol), middle range (-40 kcal/mol to below -10 kcal/mol), upper range (-10 kcal/mol or more)

# input Which folding enthalpy category applies to GGATACGCGAAAGCGTCC (((..(((....)))))) here?
# output upper range

# input Which folding enthalpy category applies to GATCCAATGATGGATC ((((((....)))))) here?
# output middle range

# input Which folding enthalpy category applies to GTTTGTGGAAACACAAAC (((((((....))))))) here?
# output lower range

# input Which folding enthalpy category applies to CGGCGCGGAAACGCACCG (((.(((....))).))) here?
# output middle range

# input Which folding enthalpy category applies to GCCTATGGAAACACAGGC ((((.((....)).)))) here?
# output middle range

# input Which folding enthalpy category applies to GTGGCCGGAAACAGCCAC (((((.(....).))))) here?
# output lower range

# input Which folding enthalpy category applies to GTACTGGGAAACCGGTAC ((((.((....)).)))) here?
# output middle range

# input Which folding enthalpy category applies to GTAAATCGAAAGATATAC (((.(((....))).))) here?
# output middle range

# input Which folding enthalpy category applies to GAGGACGGAAACGCCCTC ((((.((....)).)))) here?
# output lower range

# input Which folding enthalpy category applies to GCCCTCGAAAGAGGGGGC ((((((....)))..))) here?
# output middle range

# input Which folding enthalpy category applies to GTATCCGAAAGGACGTAC ((((((....)))..))) here?
# output upper range
